method: Human Hepatocyte Stability (Test D)
Assay type: in vitro ADME
run_parameters: human, cryopreserved pooled human hepatocytes (LiverPool 10-Donor), geometric mean if run multiple times
Measured hepatocyte CLint at 1 µM values are reported for all entries that follow.
I'd appreciate it if you wrote the number followed by its unit.

Sample answers from the record:
{"compound": "COc1cc(F)c(O[C@H]2CC[C@@](C)(C(=O)O)CC2)cc1C(=O)N[C@@H]1[C@H]2CC[C@H](C2)[C@@H]1C(=O)NCC(C)(C)C(F)(F)F [Example 38]", "hepatocyte CLint at 1 µM": "4.2 µL/min/1e6 cells"}
{"compound": "COc1cc(F)c(O[C@H]2CC[C@@](C)(C(=O)O)CC2)cc1C(=O)N[C@@H]1CCC[C@@H]1C(=O)Nc1cccc(S(=O)(=O)C(F)(F)F)c1 [Example 351]", "hepatocyte CLint at 1 µM": "15 µL/min/1e6 cells"}
{"compound": "COc1cc(F)c(O[C@H]2CC[C@@](C)(C(=O)O)CC2)cc1C(=O)N[C@@H]1[C@H]2CC[C@H](C2)[C@@H]1C(=O)N[C@H](C)C(C)(C)C [Example 36]", "hepatocyte CLint at 1 µM": "5.8 µL/min/1e6 cells"}
{"compound": "COc1cc(F)c(O[C@H]2CC[C@@](CC#N)(C(=O)O)CC2)cc1C(=O)N[C@@H]1[C@H]2CC[C@H](C2)[C@@H]1C(=O)NCC1(C)CCC1 [Example 424]", "hepatocyte CLint at 1 µM": "10 µL/min/1e6 cells"}
{"compound": "CCC(CC)CNC(=O)[C@H]1[C@@H]2CC[C@@H](C2)[C@H]1NC(=O)c1cc(O[C@H]2CC[C@@H](C(=O)O)CC2)c(F)cc1OC [Example 197]", "hepatocyte CLint at 1 µM": "12 µL/min/1e6 cells"}

Alright, here's another compound for you.
Task: Look up hepatocyte CLint at 1 µM for this compound: COc1cc(F)c(-c2cccc(C(=O)O)c2)cc1C(=O)N[C@@H]1[C@H](C(=O)Nc2cccc(S(=O)(=O)C(F)(F)F)c2)[C@H]2C=C[C@@H]1C2 (single isomer, unassigned) [Example 555]
Result: 13 µL/min/1e6 cells

====

target_system: human RXFP1 (Homo sapiens, UniProt Q9HBX9)
Sequence (Q9HBX9 whole entry): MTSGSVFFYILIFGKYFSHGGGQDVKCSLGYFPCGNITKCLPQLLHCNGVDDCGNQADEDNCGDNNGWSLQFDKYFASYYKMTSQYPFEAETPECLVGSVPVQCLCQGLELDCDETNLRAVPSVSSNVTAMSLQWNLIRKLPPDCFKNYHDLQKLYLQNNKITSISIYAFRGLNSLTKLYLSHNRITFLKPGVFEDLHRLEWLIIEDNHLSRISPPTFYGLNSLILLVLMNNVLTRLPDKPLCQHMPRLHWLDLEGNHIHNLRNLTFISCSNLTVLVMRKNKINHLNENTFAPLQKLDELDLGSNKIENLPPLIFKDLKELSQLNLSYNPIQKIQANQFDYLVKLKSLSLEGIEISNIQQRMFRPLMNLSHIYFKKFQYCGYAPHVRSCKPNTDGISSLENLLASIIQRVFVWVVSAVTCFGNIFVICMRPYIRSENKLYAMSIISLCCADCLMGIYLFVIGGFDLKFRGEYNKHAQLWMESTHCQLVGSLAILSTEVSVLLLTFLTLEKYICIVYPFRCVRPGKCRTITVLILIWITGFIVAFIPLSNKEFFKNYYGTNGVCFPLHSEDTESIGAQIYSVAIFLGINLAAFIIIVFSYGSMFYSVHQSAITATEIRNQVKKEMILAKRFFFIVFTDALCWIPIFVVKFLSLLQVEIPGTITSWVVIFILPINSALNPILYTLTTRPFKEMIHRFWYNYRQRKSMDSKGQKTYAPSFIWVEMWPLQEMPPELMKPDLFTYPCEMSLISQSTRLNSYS
method: RXFP1 Hu cAMP (Test A)
Format: cell-based
Set-up: expressed in transfected cells; host or cells: Jump-In T-REx CHO-K1 cells (ThermoFisher), induced with 10 ng/ml doxycycline for 24 h
run_parameters: RXFP1 Hu cAMP
readout_name: Test A Sinf (%)
Quick reminder: number only, in %, skip the unit.

Some compounds with recorded Test A Sinf:
{"compound": "COc1cc(F)c(O[C@H]2CC[C@@H](C(=O)O)CC2)cc1C(=O)N[C@@H]1[C@H]2CC[C@H](C2)[C@@H]1C(=O)Nc1cccc(C(F)(F)F)c1 [Example 193]", "Test A Sinf [%]": 105}
{"compound": "COc1cc(F)c(OC[C@H]2CC[C@@H](C(=O)O)CC2)cc1C(=O)N[C@@H]1[C@H]2CC[C@H](C2)[C@@H]1C(=O)Nc1cccc(S(=O)(=O)C(F)(F)F)c1 [Example 440]", "Test A Sinf [%]": 111}
{"compound": "COc1cc(F)c(O[C@H]2CC[C@@](C)(C(=O)O)CC2)cc1C(=O)N[C@@H]1COC[C@@H]1C(=O)NCC1(C)CCC1 (racemic) [Example 350]", "Test A Sinf [%]": 97}

For the next question, use this compound.
Task: Param item = COc1cc(F)c(O[C@H]2CC[C@@](C)(C(=O)O)CC2)cc1C(=O)N[C@@H]1[C@H]2CC[C@H](C2)[C@@H]1C(=O)N[C@@H]1CCCN(S(=O)(=O)C(F)(F)F)C1 [Example 604] ; retrieve measured Test A Sinf.
Result: 105

====

method: Rat Hepatocyte Stability (Test E)
Type: in vitro ADME
run_parameters: rat, hepatocytes, geometric mean if run multiple times
readout_name: hepatocyte CLint (µL/min/1e6 cells)
Expressed in µL/min/1e6 cells, but write only the number.

Solved cases (5 shown):
{"molecule": "CCCCNC(=O)[C@H]1[C@@H]2CC[C@@H](C2)[C@H]1NC(=O)c1cc(O[C@H]2CC[C@@](C)(C(=O)O)CC2)c(C#N)cc1OC", "quantitative_result": 59}
{"molecule": "COc1cc(F)c(O[C@H]2CC[C@@](C)(C(=O)O)CC2)cc1C(=O)Nc1ccccc1C(=O)NCC1(C)CCC1", "quantitative_result": 24}
{"molecule": "COc1cc(F)c(-c2ccn(CCC(=O)O)c(=O)c2)cc1C(=O)N[C@@H]1[C@H]2CC[C@H](C2)[C@@H]1C(=O)Nc1cccc(S(=O)(=O)C(F)(F)F)c1", "quantitative_result": 15}
{"molecule": "COc1cc(F)c(O[C@H]2CC[C@@H](C(=O)O)CC2)cc1C(=O)N[C@@H]1[C@H]2CC[C@H](C2)[C@@H]1C(=O)NCC(C)(C)C", "quantitative_result": 130}
{"molecule": "COc1cc(F)c(-c2ccc(C[C@@H](N)C(=O)O)cc2)cc1C(=O)N[C@@H]1[C@H]2CC[C@H](C2)[C@@H]1C(=O)Nc1cccc(S(=O)(=O)C(F)(F)F)c1", "quantitative_result": 22}

Task: Using the record for CCC(CC)CNC(=O)[C@H]1[C@@H]2CC[C@@H](C2)[C@H]1NC(=O)c1cc(O[C@H]2CC[C@@H](C(=O)O)CC2)c(F)cc1OC , report its hepatocyte CLint.
Result: 28

Task: What about this molecule? COc1cc(F)c(-c2ccc(C(=O)O)cc2)cc1C(=O)N[C@H]1[C@@H](C(=O)Nc2cccc(S(=O)(=O)C(F)(F)F)c2)[C@@H]2C=C[C@H]1C2 (single isomer, unassigned) [Example 552]
Result: 16

Task: Further, for COc1cc(F)c(Cc2cnn(CC(=O)O)c2)cc1C(=O)N[C@@H]1[C@H]2CC[C@H](C2)[C@@H]1C(=O)Nc1cccc(S(=O)(=O)C(F)(F)F)c1 ?
Result: 14

Task: Same again, this time with COc1cc(Cl)c(O[C@H]2CC[C@@](C)(C(=O)O)CC2)cc1C(=O)N[C@@H]1[C@H]2CC[C@H](C2)[C@@H]1C(=O)NCC1(C)CCC1
Result: 15

Task: Then COc1cc(F)c(-c2ccc(CCC(=O)O)cc2)cc1C(=O)N[C@@H]1CCC[C@@H]1C(=O)Nc1cccc(S(=O)(=O)C(F)(F)F)c1 ?
Result: 59

Task: Now this one: COc1cc(F)c(O[C@H]2CC[C@@H](C(=O)O)CC2)cc1C(=O)N[C@@H]1[C@H]2CC[C@H](C2)[C@@H]1C(=O)Nc1cccc(I)c1
Result: 83

Task: Follow-up entry: COc1cc(F)c(O[C@H]2CC[C@@](CO)(C(=O)O)CC2)cc1C(=O)N[C@@H]1[C@H]2CC[C@H](C2)[C@@H]1C(=O)NCC1(C(F)(F)F)CCC1
Result: 15

====

Some compounds, each annotated with its measured hepatocyte CLint.
method: Rat Hepatocyte Stability (Test E)
Type: in vitro ADME
run_parameters: rat, hepatocytes, geometric mean if run multiple times

Task: What value of hepatocyte CLint has been recorded for this entry: COc1cc(F)c(Oc2ccc(C(=O)O)cc2)cc1C(=O)N[C@H]1[C@@H](C(=O)Nc2cccc(S(=O)(=O)C(F)(F)F)c2)[C@@H]2C=C[C@H]1C2 (racemic) [Example 484]
Result: 13 µL/min/1e6 cells

Task: Please answer likewise for COc1cc(F)c(O[C@H]2C[C@@](C)(C(=O)O)C2)cc1C(=O)N[C@@H]1[C@H]2CC[C@H](C2)[C@@H]1C(=O)NCC1(C)CCC1 [Example 149]
Result: 11 µL/min/1e6 cells

Task: Next up: COc1cc(F)c(O[C@H]2CC[C@@H](C(=O)O)CC2)cc1C(=O)N[C@H]1[C@@H](C(=O)Nc2ccc(F)c(C(F)(F)F)c2)[C@H]2CC[C@@H]1O2 [Example 49]
Result: < 1 µL/min/1e6 cells

Task: Subsequent entry: COc1cc(C#N)c(O[C@H]2CC[C@@](C)(C(=O)O)CC2)cc1C(=O)N[C@@H]1[C@H]2CC[C@H](C2)[C@@H]1C(=O)NCC(=O)NC(C)C [Example 85]
Result: 15 µL/min/1e6 cells

Task: And then COc1cc(F)c(-c2cccc(CC(=O)O)c2)cc1C(=O)N[C@H]1[C@@H](C(=O)Nc2cccc(S(=O)(=O)C(F)(F)F)c2)[C@@H]2C=C[C@H]1C2 (racemic) [Example 281] , what is it?
Result: 9.1 µL/min/1e6 cells

Task: // next record COc1cc(F)c(O[C@H]2CC[C@@H](C(=O)O)CC2)cc1C(=O)N[C@@H]1[C@H]2CC[C@H](C2)[C@@H]1C(=O)Nc1ccc(C(F)(F)F)cn1 [Example 13]
Result: 10 µL/min/1e6 cells

Task: Another: COc1cc(F)c(O[C@H]2CC[C@@H](C(=O)O)CC2)cc1C(=O)N[C@@H]1[C@H]2CC[C@H](C2)[C@@H]1C(=O)NCC1(C)CC1 [Example 198]
Result: 77 µL/min/1e6 cells

Task: Now consider COc1cc(C#N)c(O[C@H]2CC[C@@](C)(C(=O)O)CC2)cc1C(=O)N[C@@H]1[C@H]2CC[C@H](C2)[C@@H]1C(=O)NCC1(F)CCOCC1 [Example 110] .
Result: 19 µL/min/1e6 cells

Task: Param item: COc1cc(F)c(-c2ccc(CC(=O)O)cc2)cc1C(=O)N[C@H]1[C@@H](C(=O)Nc2cccc(S(=O)(=O)C(F)(F)F)c2)[C@@H]2C=C[C@H]1C2 (racemic) [Example 234]
Result: 9.3 µL/min/1e6 cells

Task: Would you kindly repeat that for COc1cc(F)c(O[C@H]2CC[C@@](C)(C(=O)O)CC2)cc1C(=O)N[C@@H]1[C@H]2CC[C@H](C2)[C@@H]1C(=O)NCC(C)(C)C(F)(F)F [Example 38] ?
Result: 9 µL/min/1e6 cells

Task: COc1cc(F)c(O[C@H]2CC[C@@](C)(C(=O)O)CC2)cc1C(=O)Nc1c(C)cccc1C(=O)NCC1(C)CCC1 [Example 156] , same question.
Result: 22 µL/min/1e6 cells

The reported numbers originate from patent US11667602B2.
